Source of measurements: paper PMC10537105

What melting point was measured for each of the following?

Worked examples, 7 molecules total:
CCCC1S/C(=N\N2C(=O)C(C#N)=CC23c2ccccc2Nc2ccccc23)N(c2ccc([N+](=O)[O-])cc2)C1=O (centres unmarked) [10e]; 249 to 251 °C (dec.)
N#CC1=CC2(c3ccccc3Nc3ccccc32)N(NC(=S)Nc2ccccc2)C1=O; 194 to 195 °C (dec.)
CCCC1S/C(=N\N2C(=O)C(C#N)=CC23c2ccccc2Nc2ccccc23)N(c2ccccc2)C1=O (centres unmarked) [10a]; 238 to 240 °C (dec.)
CCOC(=O)/C=C1\S/C(=N\N2C(=O)C(C#N)=CC23c2ccccc2Nc2ccccc23)N(c2ccc(F)cc2)C1=O; 269 to 272 °C (dec.)
N#CC1=CC2(c3ccccc3Nc3ccccc32)N(/N=C2\SCC(=O)N2c2ccc([N+](=O)[O-])cc2)C1=O; 244 to 247 °C (dec.)
COc1cccc(N2C(=O)CS/C2=N\N2C(=O)C(C#N)=CC23c2ccccc2Nc2ccccc23)c1; 217 to 220 °C (dec.)
N#CC1=CC2(c3ccccc3Nc3ccccc32)N(/N=C2\SCC(=O)N2c2ccccc2)C1=O; 241 to 243 °C (dec.)

Next up:
Please give the measured melting point for this molecule: CCCC1S/C(=N\N2C(=O)C(C#N)=CC23c2ccccc2Nc2ccccc23)N(c2cccc(OC)c2)C1=O (centres unmarked) [10c]
229 to 231 °C (dec.)
